Assay: Identification of proteins required for the processing of the EWS-FLI1 nascent transcript;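 further: robust z of luciferase light less the median z of siRNAs with the same seed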
Conditions: TC32 Ewing sarcoma NR0B1-luc vs CMV-luc, 48 h; screened at 20 nM (by protocol)
Whole data set: some 59,000 sequences, median the read-out near -0.00055, cut for the lowest 2% near -2. This is one part of a sample in which the lowest values are shown more often than they occur.
Field: seed-corrected z-score. Provide a value for each of the sequences that follow.
Numbers only.

* UGCUCUAUCUCUGUCAGGG against RORC | 0.626
* CAUGGUCUCAGUCAGCAUG against CBY3 | -2.21
* AAUUCCAGAAUUACAGGCU against PRAC1 | -0.113

Return reported seed-corrected z-score. Input sequence: UCGCUUGCAAAUAAUCUGC against ULK2 -0.141

---

Test: Identification of proteins required for the processing of the EWS-FLI1 nascent transcript;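 further: robust z of luciferase light less the median z of siRNAs with the same seed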
Settings: TC32 Ewing sarcoma NR0B1-luc vs CMV-luc, 48 h; screened at 20 nM (by protocol)
Over roughly 59,000 sequences, the read-out has its median near -0.00055; the lowest 2% begin near -2. Many of the other results were omitted from the sample, so the lowest values are more common in it than they were.
Class Met: seed-corrected z-score at least 0.1. Class Not met: seed-corrected z-score below 0.1.

- UUUCAGCUUCUUGUACUGG against ROCK1P1: Not met

// inclusive: seed-corrected z-score at least 0.1? input: UACACUAGCAGUGACCAUG against MBOAT1 Not met

// inclusive: seed-corrected z-score at least 0.1? input: UGCUGUUCAAGCGAAUGCC against DRG1 Met

// inclusive: seed-corrected z-score at least 0.1? input: UUUCCCAUCAGGGUUAAGC against OR2A12 Not met

// inclusive: seed-corrected z-score at least 0.1? input: UAUAACUUGUCGGAAACGC against NPIPB3 Met

// inclusive: seed-corrected z-score at least 0.1? input: AUAUGCUUCACAGUUCUAG against MMP1 Not met

---

Assay: Identification of proteins required for the processing of the EWS-FLI1 nascent transcript;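 further: robust z of luciferase light less the median z of siRNAs with the same seed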
Settings: TC32 Ewing sarcoma NR0B1-luc vs CMV-luc (EWS-FLI1 target promoter against control promoter), 48 h; screened at 20 nM (by protocol)
Whole data set: some 59,000 sequences, median the read-out near -0.00055, cut for the lowest 2% near -2. The sample as a whole holds a higher share of the lowest values than the screen did.
QUANTITY: seed-corrected z-score
Numbers only.

• AACUCUUCACGUACUAGCC against PKD2 = 0.287

Please give seed-corrected z-score for each item listed below.
1. UUAUCAAUUAGAGGAUAAC against B3GALNT1
2. UGGUCUUCACAUUAGAUGC against NUTM1
3. AUGCGGUUCAGGAACUUGG against SBNO2
4. UUUCUGGUAAAACUCCUCA against HS1BP3
5. UUACAAAGAAGCACGUUCA against HOXB8
6. AAACUUCCUAUUAUCGACC against SPRED2
7. UUUGGUAUCUCCGACCACC against UCP2

0.214
-2.03
-2.46
0.892
0.191
-0.704
0.898

Please give seed-corrected z-score for each item listed below.
1. UGUAGUAGAACUUCCUGGG against HS6ST1
2. AUCUAUUAUGGUUUCGAUC against BAZ1B
3. UGGUUAUUAAUGGUGCACC against ELF2
4. UCUUUCUUUAGUCUGAGUG against NMUR2
5. AAUGGUGUUGCUCUUCUCC against ZNF23
6. UAGUUGAAGAGGGCGUGGG against TAS1R3
7. UCAGGUACUCUAACACCGC against HIST1H2AC

[-1.42, -0.12, -2.8, 0.78, 1.51, -0.153, -0.00982]

Please give seed-corrected z-score for each item listed below.
1. UUCAUUUGCUCGAUGGUUG against MAPK1
2. UUGGUGACUGUGCGCAUCC against TACR2

1. 1.09
2. -0.41
